Answer each item with its documented log P.
Write the value as a bare number.

(Q) Fill in the blank: the reported log P of CCOC(=O)OCn1ncc2c(O)ncnc21 [1-(Ethoxycarbonyloxymethyl)allopurinol] is ____.
(A) 0.21

(Q) Fill in the blank: the reported log P of `CCCC(=O)OCn1cc2c(=O)[nH]cnc2n1` is ____.
(A) 0.33

(Q) Fill in the blank: the reported log P of `O=C(c1ccccc1)n1ncc2c(=O)[nH]cnc21` is ____.
(A) 1.20

---

Assay: In-vitro cleavage of allopurinol derivatives to allopurinol in 80% human plasma (pH 7.4) at 37° C
Format: in vitro ADME
Conditions: 80% plasma, pH 7.4, 37° C, read-out: Half-time (t0.5) of the conversion to allopurinol, 80% human plasma (converted)
Where a name gives a salt, the structure may show the parent alone.
Decide using half-life alone. Strictly below 20 min: YES. Equal to or above 20 min: NO.

(Q) Does NC(Cc1ccccc1)C(=O)OCn1ncc2c(=O)[nH]cnc21 (racemic) [1-(DL-Phenylalanyloxymethyl)allopurinol, (hydrobromide)] have half-life strictly under 20 min?
(A) YES

(Q) Does CN(C)CCCC(=O)OCn1ncc2c(=O)[nH]cnc21 [(hydrochloride)] have half-life strictly under 20 min?
(A) NO

(Q) Does CN(C)CC(=O)OCn1ncc2c(=O)[nH]cnc21 [(hydrochloride)] have half-life strictly under 20 min?
(A) YES

(Q) Does `O=C(c1ccccc1)n1ncc2c(=O)[nH]cnc21` have half-life strictly under 20 min?
(A) YES

(Q) Does `CCCC(=O)OCn1cc2c(=O)n(COC(=O)CCC)cnc2n1` have half-life strictly under 20 min?
(A) NO

(Q) Does `CC(=O)OCn1ncc2c(O)ncnc21` have half-life strictly under 20 min?
(A) NO

(Q) Does `O=C(CCl)n1ncc2c(=O)[nH]cnc21` have half-life strictly under 20 min?
(A) YES

(Q) Does `O=C(OCn1ncc2c(=O)[nH]cnc21)c1cccnc1` have half-life strictly under 20 min?
(A) NO

(Q) Does `CCC(=O)n1ncc2c(O)ncnc21` have half-life strictly under 20 min?
(A) YES

(Q) Does `CCCC(=O)OCn1cc2c(=O)[nH]cnc2n1` have half-life strictly under 20 min?
(A) NO

(Q) Does `CCCC(=O)OCn1cnc2c(cnn2COC(=O)CCC)c1=O` have half-life strictly under 20 min?
(A) NO

---

Experiment: physchem
Settings: water
Where a name gives a salt, the structure may show the parent alone.
PROPERTY_LABEL: solubility

(Q) Fill in the blank: the reported solubility of CC(C)C[C@H](N)C(=O)OCn1ncc2c(=O)[nH]cnc21 [1-(L-Leucyloxymethyl)allopurinol, (hydrobromide)] is ____.
(A) > 400 mg/mL

(Q) Fill in the blank: the reported solubility of CN(C)CC(=O)OCn1ncc2c(=O)[nH]cnc21 [(hydrochloride)] is ____.
(A) > 500 mg/mL

(Q) Fill in the blank: the reported solubility of CC(N)C(=O)OCn1ncc2c(=O)[nH]cnc21 (racemic) [(hydrobromide)] is ____.
(A) > 500 mg/mL

(Q) Fill in the blank: the reported solubility of CN(C)CC(=O)n1ncc2c(=O)[nH]cnc21 [1-(N,N--Dimethylglycyl)allopurinol, (hydrochloride)] is ____.
(A) > 200 mg/mL
